# credit: ChEMBL document CHEMBL1153417

- procedureSummary: Electrophysiological effect in New Zealand rabbit right ventricular papillary muscle assessed as maximal rate of depolarization at 5 uM at 1 Hz stimulation frequency
- Assay type: functional, Oryctolagus cuniculus, Muscle tissue
assayReadout: Activity (V/s)
The figure you give is taken to be in V/s; do not add the unit.

CCN(CC)CC(=O)N1CCOc2c(C)c(C)cc(C)c21 = 200.2

Query block: Return reported Activity. Input compound: CCN(CC)CC(=O)N1CC(c2ccccc2)Oc2c(C)c(C)cc(C)c21 (stereo unspecified)
Result block: 174.5

Query block: Please look at this compound and report its Activity: CCOC(=O)C1(C)CN(C(=O)CN(CC)CC)c2c(C)c(Cl)c(C)c(C)c2O1 (stereo unspecified)
Result block: 184.7

Query block: Please give the documented Activity of CCN(CC)CC(=O)N1CC(C)(C)Oc2c(C)c(C)cc(C)c21
Result block: 175.4

Query block: Give the reported value of Activity for this record: CCOC(=O)C1(C)CN(C(=O)CN(CC)CC)c2c(C)cc(C)c(C)c2O1 (stereo unspecified)
Result block: 171.9

Query block: Could you please provide reported Activity for CCN(CC)CC(=O)N1CC(C)(C)Oc2c(C)c(C)c(Cl)c(C)c21 ? Thanks!
Result block: 188.4
